Biological target: T1, human IL-13 (human, UniProt P35225 35-146)
T1 construct: mature; The Pfizer protein carries an N-terminal FLAG tag; bioassays used R&D Systems IL-13; also called hu IL-13; rHu IL-13
T1 sequence (P35225 35-146 limits assumed, form in doubt): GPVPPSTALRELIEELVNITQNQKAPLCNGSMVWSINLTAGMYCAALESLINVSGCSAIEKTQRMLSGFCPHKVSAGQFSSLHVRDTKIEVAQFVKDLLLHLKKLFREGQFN
Assay: SPR 37°C, antibody captured by anti-human IgG, human IL-13 1.56-50 nM
Hi there, I'd appreciate the recorded pKd for every entry that follows.
Friendly reminder that pKd comes from taking -log10 of the concentration in mol/L.

**Q:** Specify measured pKd for IL13-0271 (antibody, IgG1, V domains shown, IgG1 effector-null/kappa IgG; also called IL13433-0271) VH: EVQLVESGGGLVQPGGSLRLSCAASGFTFSSYAMSWVRQAPGKGLEWVASISTGDTTYYPDSVKGRFTISRDNAKNSLYLQMNSLRAEDTAVYYCARNEGYYFGLTQWGRGTLVTVSS VL: DIQMTQSPSSLSASVGDRVTITCRASESVDHFGWSLVHWYQQKPGKAPKLLIYRADSLETGVPSRFSGSGSGTDFTLTISSLQPEDFATYYCQQSNEDPWTFGGGTKVEIK .
**A:** 10.13

**Q:** Specify measured pKd for IL13-0001 (antibody, human IgG1, kappa, V domains shown, also called IL13433-0001; 1RVHC9-VLA4) VH: EVQLVESGGGLVQPGGSLRLSCAASGFTFSSYAMSWVRQAPGKGLEWVASISSGDTTYYPDSVKGRFTISRDNAKNSLYLQMNSLRAEDTAVYYCARNEGYYFGLTLWGQGTLVTVSS VL: DIQMTQSPSSLSASVGDRVTITCKASESVDHFGWSLVHWYQQKPGKAPKLLIYRASNLESGVPSRFSGSGSGTDFTLTISSLQPEDFATYYCQQSNEDPWTFGGGTKVEIKR .
**A:** 10.24

**Q:** Specify measured pKd for IL13-0270 (antibody, V domains shown, IgG1 effector-null/kappa IgG; also called IL13433-0270) VH: EVQLVESGGGLVQPGGSLRLSCAASGFTFSSYAMSWVRQAPGKGLEWVASISTGDTTYYPDSVKGRFTISRDNAKNSLYLQMNSLRAEDTAVYYCARNEGYYFGLTLWGQGTLVTVSS VL: DIQMTQSPSSLSASVGDRVTITCRASESVDHFGWSLVHWYQQKPGKAPKLLIYRADSLETGVPSRFSGSGSGTDFTLTISSLQPEDFATYYCQQSNEDPWTFGGGTKVEIK .
**A:** 10.03

**Q:** Specify measured pKd for IL13-0259 (antibody, IgG1, V domains shown, IgG1 effector-null/kappa IgG) VH: EVQLVESGGGLVQPGGSLRLSCAASGFTFSSYAMSWVRQAPGKGLEWVASISTGDTTYYPDSVKGRFTISRDNAKNSLYLQMNSLRAEDTAVYYCARNEGYYFGLTQWGRGTLVTVSS VL: DIQMTQSPSSLSASVGDRVTITCRASQSVDHFGWSLVHWYQQKPGKAPKLLIYRASNLESGVPSRFSGSGSGTDFTLTISSLQPEDFATYYCQQSNEDPWTFGGGTKVEIK .
**A:** 10.14
